Overview of reported MIC across a group of compounds:
# System: P. aeruginosa MP-3
# Test name: MIC determination by CLSI broth dilution, P. aeruginosa MP-3
# Format: cell-based
# Condition: Pseudomonas aeruginosa, MP3, strain MP-3

- Compound: "CO[C@]1(C)C[C@@H](C)CN(C)[C@@H](CCCN2CCc3ccccc3C2)COC(=O)C(C)(C)C(=O)[C@H](C)[C@H]1O[C@@H]1O[C@H](C)C[C@H](N(C)C)[C@H]1O"
  Tested system: "P. aeruginosa MP-3"
  MIC: "> 32 µg/mL"
- Compound: "CCN(CC)CCC[C@H]1COC(=O)C(C)(C)C(=O)[C@H](C)[C@@H](O[C@@H]2O[C@H](C)C[C@H](N(C)C)[C@H]2O)[C@](C)(OC)C[C@@H](C)CN1C"
  Tested system: "P. aeruginosa MP-3"
  MIC: "> 32 µg/mL"
- Compound: "CCC(O)C(C)CN1CCC(C[C@@H]2COC(=O)C(C)(C)C(=O)[C@H](C)[C@@H](O[C@@H]3O[C@H](C)C[C@H](N(C)C)[C@H]3O)[C@](C)(OC)C[C@@H](C)CN2C)CC1 (stereo partly drawn)"
  Tested system: "P. aeruginosa MP-3"
  MIC: "> 32 µg/mL"
